experiment: viability gain of MRP-1-high H69AR cells under doxorubicin, pilot screen, MRP-1 activator project, CellTiter-Glo, duplicate (AID 807); conditions: H69AR viability with doxorubicin, CellTiter-Glo luminescence; at 10 µM; stronger effect = higher value;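 further: compound pretreatment 18-22 h then 72 h combined with doxorubicin; 0% = doxorubicin alone and 100% = vehicle without doxorubicin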
Measure: viability increase (%)
A number alone suffices; assume %.

Compound	Unit abbrev	viability increase
Cc1ccc(S(=O)(=O)Nc2nc(C)cc(NCCN)n2)cc1	%	-0.98
COc1cccc(C2c3c(oc4ccccc4c3=O)C(=O)N2c2ccccn2)c1 (configuration not stated)	%	0.48
Cc1onc(-c2ccccc2)c1C(=O)Nc1cccc(C#N)c1	%	-2.52

Task: Dear colleague, please send me the reported viability increase for `O=C(Oc1c(Cl)cc(Cl)c2cccnc12)N1CCOCC1` when you can.
Output: -2.13

Task: Dear colleague, please send me the reported viability increase for Cc1ccc(S(=O)(=O)N2CCCC2C(=O)Nc2nc3ccccc3s2)cc1 (configuration not stated) when you can.
Output: -3.97

Task: Dear colleague, please send me the reported viability increase for `CC(=O)NCCN=Cc1sc2ccccc2c1O` when you can.
Output: -2.42

Task: Dear colleague, please send me the reported viability increase for `Cc1nc2ccccc2c2oc(C(=O)N3CCc4ccccc43)cc12` when you can.
Output: -0.71

Task: Dear colleague, please send me the reported viability increase for `CCCC(c1c(C)n(C)n(-c2ccccc2)c1=O)c1c(C)n(C)n(-c2ccccc2)c1=O` when you can.
Output: -1.18

* * *

Measured growth inhibition, listed per entry for reference.
experiment: Restrictive medium S. cerevisiae growth inhibition, OD615, pilot screen of yeast lifespan reduction project, restrictive growth control (AID 706); conditions: OD615, 48 h, at 10 µM, stronger effect = higher value;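 further: modified DeaD lifespan yeast strain shifted to restrictive glucose medium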
Calls of active or inactive are those of the source.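 Rule for the calls: active = growth inhibition above a set limit, 3 SD over mean compound inhibition, in both replicates (cut at about 43% in these data); inconclusive = above the limit in only one replicate; inactive = at or below the limit in both replicates.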

Task: Dear colleague, please send me the reported growth inhibition for `O=C(CNS(=O)(=O)c1cccc2nsnc12)NCc1ccc(Cl)cc1` when you can.
Output: -2.34% (inactive)

Task: Dear colleague, please send me the reported growth inhibition for `COc1ccc(CCNS(=O)(=O)c2ccc3c(c2)OCCO3)cc1OC` when you can.
Output: -3.31% (inactive)

* * *

experiment: reversal of MRP1-mediated doxorubicin resistance, pilot screen, H69AR cells, doxorubicin co-treatment (AID 601); conditions: H69AR cells, CellTiter-Glo, 72 h; compound alone cytotoxicity; at 10 µM
Measure: viability (%)
A number alone suffices; assume %.

# example entries with known answers
Compound	viability, %
CN(C1CCS(=O)(=O)C1)S(=O)(=O)c1cccc2nsnc12 (centres undefined)	107
CCOCCn1cnc2sc(C(=O)Nc3nc(C)c(C(=O)OCC)s3)c(C)c2c1=O	78
O=C1CC(c2ccccc2)n2nc(NC(=O)c3ccccn3)nc2N1 (centres undefined)	66.2
CN(C(=O)C(Cl)Cl)c1ccc(OC(=O)c2ccco2)cc1	96.6
O=C(CC(C(=O)N1CCc2ccccc21)n1ccnc1)NCc1cccnc1 (centres undefined)	89.1
COc1ccc2c(CC(=O)Nc3nnc(C4CC4)s3)coc2c1	99.4

Task: Dear colleague, please send me the reported viability for `O=C(O)c1cc2c(s1)CCCC2` when you can.
Output: 89.9

Task: Dear colleague, please send me the reported viability for `CC(C)c1nnc(SCC(=O)NCc2ccco2)n1C` when you can.
Output: 79.6

Task: Dear colleague, please send me the reported viability for `CC[N+](C)(C)Cc1ccccc1Br` when you can.
Output: 98.8

* * *

assay: SK-BR-3 cell growth inhibitors, pilot screen, 24 h, human (AID 572); conditions: SK-BR-3 viability, CellTiter-Glo luminescence, at 10 µM, stronger effect = lower value;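 further: compound exposure lasted between 18 and 24 h rather than exactly 24 h; 100% = carrier-treated control wells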
For each record, check the reported viability: if it is below 90% write Met, else write Not met.

Worked cases, answers included:
Compound	Label value
Cc1ncc([N+](=O)[O-])n1CC(O)CCl (stereo not given)	Not met
CC1CCc2cc(F)cc3c(=O)c(C(=O)O)cn1c23 (stereo not given)	Not met
CC(C)CCn1c(N)c(S(=O)(=O)c2cccs2)c2nc3ccccc3nc21	Not met
CCOC(=O)N1CCN(S(=O)(=O)c2cc(Cl)ccc2Cl)CC1	Not met
Cc1ccc(-n2c(Cc3cccn3C)nnc2SCC(=O)NCc2ccc3c(c2)OCO3)cc1	Not met
O=C1CC(c2ccc(F)c(Br)c2)C2=C(CCCC2=O)N1 (stereo not given)	Not met
COc1cc(-c2nn3c(-c4cccnc4)nnc3s2)cc(OC)c1OC	Not met
O=C(NC1CCCCC1)c1cc2nc(-c3ccco3)cc(C(F)(F)F)n2n1	Met

We next turn to a different compound, shown below.
Task: State whether 90% exceeds viability recorded for CCCC1C(C#N)=C(N)Oc2n[nH]c(C(C)(C)C)c21 (stereo not given) .
Output: Not met

* * *

experiment: HUVEC growth inhibition – cell-based, human, primary screen (AID 575); conditions: HUVEC proliferation, CellTiter-Glo luminescence, 72 h; at 10 µM; stronger effect = lower value;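 further: 100% = median of untreated cell wells with 0.1% DMSO on each plate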
Measure: viability (%)
A number alone suffices; assume %.

# example entries with known answers
Compound	viability [%]
Cc1cc(C(=O)NCc2ccc(S(N)(=O)=O)cc2)cs1	105
CCOC(=O)c1c(C)oc2ccc(OCC(N)=O)cc12	72.3
O=C(CSc1nnc(Cc2ccccc2)n1C1CCCCC1)N1CCOCC1	97.9
CCOC(=O)c1c(C)c(C(=O)NCCN2CCOCC2)c(C)n1C	107
CCCn1c(C)cc(C(=O)COc2ncnc3sccc23)c1C	74.1
CCOC(=O)c1ccccc1NC(=O)COC(=O)C1=COCCO1	96.7
O=C(CN1C(=O)c2ccccc2S1(=O)=O)NCc1ccccn1	86.1
COc1ccc(-c2nc(C#N)c(N3CCN(c4ccccc4)CC3)o2)cc1	94.7

Task: Dear colleague, please send me the reported viability for `CCN(C(=O)Cc1c(C(=O)O)[nH]c2ccccc12)c1cc(OC)ccc1OC` when you can.
Output: 94.1

Task: Dear colleague, please send me the reported viability for COC(=O)CC1SCCNC1=O (centres undefined) when you can.
Output: 103

Task: Dear colleague, please send me the reported viability for `CCOc1ccc2nc(SCc3ccc(C(=O)OC)o3)[nH]c2c1` when you can.
Output: 89.5

Task: Dear colleague, please send me the reported viability for CC(C)C(NC(=O)c1ccccc1NC(=O)c1ccco1)C(=O)O (centres undefined) when you can.
Output: 94.8

Task: Dear colleague, please send me the reported viability for `O=C(Nc1ccccc1)N1C(=O)C2(OCCO2)c2ccccc21` when you can.
Output: 100

Task: Dear colleague, please send me the reported viability for `CC(=O)[C@@]1(O)CC[C@H]2[C@@H]3CCC4=CC(=O)CC[C@]4(C)[C@H]3[C@@H](O)C[C@@]21C` when you can.
Output: 94.8

* * *

experiment: growth suppression of beta-catenin knockout HCT116, pilot screen, human colon tumor cells (AID 823); details: CellTiter-Glo, 60 h, at 10 µM, stronger effect = lower value;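 further: 0% = wells killed by 20 µM Hyamine and 100% = untreated DMSO cell wells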
Results filed as inconclusive are left out.
Measure: viability (%)
A number alone suffices; assume %.

Molecule	Unit abbrev	viability
CCCCC(=O)OCCNC(=O)c1cc2ccccc2oc1=O	%	92.3

Task: Dear colleague, please send me the reported viability for O=C1CCCC2=C1C1(O)C(=O)c3ccccc3C1(O)O2 (configuration not stated) when you can.
Output: 89.4

Task: Dear colleague, please send me the reported viability for `COc1ccccc1-c1nc(NC(C)=O)n[nH]1` when you can.
Output: 92.1

Task: Dear colleague, please send me the reported viability for N#CC1=C2SCN(Cc3ccco3)CN2C(=O)CC1c1c(F)cccc1Cl (configuration not stated) when you can.
Output: 88

* * *

assay: SK-BR-3 cell growth inhibitors, pilot screen, 24 h, human (AID 572); details: SK-BR-3 viability, CellTiter-Glo luminescence, at 10 µM, stronger effect = lower value;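 further: compound exposure lasted between 18 and 24 h rather than exactly 24 h; 100% = carrier-treated control wells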
Measured viability, listed per entry for reference.
A number alone suffices; assume %.

# example entries with known answers
Compound	viability / %
Cc1ccc2nc(NC(=O)C3CCCN(S(=O)(=O)c4cnc[nH]4)C3)sc2c1 (configuration not stated)	96.5
COc1ccc(Cc2nnc(NC(=O)Cc3cccs3)s2)cc1	104
COc1cc(OC)cc(C(=O)N2CCN(C(=O)c3ccc(OC)c(OC)c3)CC2)c1	100
O=C(NCc1ccccc1)C1CCCN1S(=O)(=O)c1cccc2cccnc12 (configuration not stated)	94
COc1ccc(CC(NC(C)=O)C(=O)NC2CCN(c3nc(C)cc(C)c3C#N)CC2)c(OC)c1 (configuration not stated)	102

Task: Dear colleague, please send me the reported viability for `O=C(CN1CCN(Cc2ccc3c(c2)OCO3)CC1)Nc1ccc2c(c1)OCCO2` when you can.
Output: 97

Task: Dear colleague, please send me the reported viability for `Nc1cc(-c2ccc(Br)cc2)nn1S(=O)(=O)c1ccccc1` when you can.
Output: 90

Task: Dear colleague, please send me the reported viability for COc1ccc(N2CC(C(=O)Nc3ccc(F)cc3F)CC2=O)cc1 (configuration not stated) when you can.
Output: 102

Task: Dear colleague, please send me the reported viability for `CN(C(=O)C(Cl)Cl)c1ccc(OC(=O)c2ccco2)cc1` when you can.
Output: 130

Task: Dear colleague, please send me the reported viability for `Cc1ccccc1-n1c(=O)c2ccccc2n2nnnc12` when you can.
Output: 80

Task: Dear colleague, please send me the reported viability for `N#Cc1ccc(CSc2nnc(-c3cnccn3)o2)cc1` when you can.
Output: 106

Task: Dear colleague, please send me the reported viability for `CC1CCN(Cc2ccc(-c3nn[nH]n3)cc2)CC1` when you can.
Output: 116
